Consider the following compounds; for each one, report its selectivity ratio.
Experiment: Selectivity index, ratio of IC50 for rat L6 cells to IC50 for chloroquine and pyrimethamine-resistant Plasmodium falciparum K1
Type: toxicity, cell-based
Conditions: L6 cells (versus Plasmodium falciparum K1), read-out: Ratio IC50

Examples with answers:
> print(dat)
                                   compound  recorded.endpoint  experimental.result
1  CN1CCN(CCC(=O)NC2CC3(N4CCN(C)CC4)CC(c4ccccc4)C2C(c2ccccc2)C3)CC1 (racemic)  selectivity ratio                  123
2  CN1CCN(CCN2CCC3(N4CCCCC4)CC(c4ccccc4)C2C(c2ccccc2)C3)CC1 (racemic)  selectivity ratio                  424
3  CN1CCN(CCN2CCC3(N4CCCC4)CC(c4ccccc4)C2C(c2ccccc2)C3)CC1 (racemic)  selectivity ratio                 2190
4  CN1CCN(CCC(=O)OC2CC3(N4CCCC4)CC(c4ccccc4)C2C(c2ccccc2)C3)CC1 (racemic)  selectivity ratio                   82
5  CN1CCN(CCN2CCC3(N(C)C)CC(c4ccccc4)C2C(c2ccccc2)C3)CC1 (racemic)  selectivity ratio                  135
6  CN1CCN(CCC(=O)OC2CC3(N4CCCCC4)CC(c4ccccc4)C2C(c2ccccc2)C3)CC1 (racemic)  selectivity ratio                  392

Hey, can you go through the list below and give me selectivity ratio for every item?
1. CN1CCN(CC(=O)NC2CC3(N4CCN(C)CC4)CC(c4ccccc4)C2C(c2ccccc2)C3)CC1 (racemic)
2. CN1CCN(CCCN2CCC3(N(C)C)CC(c4ccccc4)C2C(c2ccccc2)C3)CC1 (racemic)

67.9
107

---

Experiment: Selectivity index, ratio of IC50 for rat L6 cells to IC50 for Trypanosoma brucei rhodesiense STIB900
Format: toxicity, cell-based
Details: L6 cells (versus Trypanosoma brucei rhodesiense STIB900), read-out: Ratio IC50
RECORDED_ENDPOINT: selectivity ratio
Numbers only.

> print(dat)
                                   compound  experimental.result
1  CN1CCN(CCC(=O)N2CCC3(N4CCN(C)CC4)CC(c4ccccc4)C2C(c2ccccc2)C3)CC1 (racemic)                 44.5
2  c1ccc(C2CC3(N4CCCCC4)CCN(CCCN4CCCCC4)C2C(c2ccccc2)C3)cc1 (centres undefined)                  7.5
3  CN1CCN(CCCN2CCC3(N(C)C)CC(c4ccccc4)C2C(c2ccccc2)C3)CC1 (racemic)                 4.74

Could you now look at the following compound, please?
Given Nc1nc(N)nc(Nc2ccc([As]3SCC(CO)S3)cc2)n1 (centres undefined) [MELARSOPROL] , state its recorded selectivity ratio.
1940

---

Consider the following molecules; for each one, report its selectivity ratio.
Assay: Selectivity index, ratio of IC50 for rat L6 cells to IC50 for Trypanosoma brucei rhodesiense STIB900
Format: toxicity, cell-based
Details: L6 cells (versus Trypanosoma brucei rhodesiense STIB900), read-out: Ratio IC50
Give bare numbers.

Examples with answers:
> print(dat)
                                   molecule  experimental.result
1  CN1CCN(CCCC(=O)OC2CC3(N4CCCC4)CC(c4ccccc4)C2C(c2ccccc2)C3)CC1 (racemic)                 67.7
2  CN1CCN(CCC(=O)OC2CC3(N(C)C)CC(c4ccccc4)C2C(c2ccccc2)C3)CC1 (racemic)                  148
3  CN1CCN(CCC(=O)NC2CC3(N4CCN(C)CC4)CC(c4ccccc4)C2C(c2ccccc2)C3)CC1 (racemic)                 20.6
4  CN1CCN(C23CCNC(C(c4ccccc4)C2)C(c2ccccc2)C3)CC1 (racemic)                  255
5  CN1CCN(CCCN2CCC3(N4CCCCC4)CC(c4ccccc4)C2C(c2ccccc2)C3)CC1 (racemic)                 3.55
6  CN1CCN(CCC(=O)OC2CC3(N4CCCC4)CC(c4ccccc4)C2C(c2ccccc2)C3)CC1 (racemic)                 47.4

Hey, can you go through the list below and give me selectivity ratio for every item?
1. CN1CCN(CCC(=O)OC2CC3(N4CCCCC4)CC(c4ccccc4)C2C(c2ccccc2)C3)CC1 (racemic)
2. CN1CCN(CCCN2CCC3(N4CCCC4)CC(c4ccccc4)C2C(c2ccccc2)C3)CC1 (racemic)

[271, 3.93]
